Listing of entries alongside the reported melting point.

{"columns": ["compound", "melting point"],
 "data": [
  ["O=C(c1ccccc1)C(c1ccccc1)C(C(=O)c1ccc(Br)cc1)n1cncn1 (stereo not drawn) [Compound 10i]", "168 to 171 °C"],
  ["O=C(CC(C(=O)c1ccc(Br)cc1)n1cncn1)c1ccc(Cl)cc1 (stereo not drawn) [Compound 10d]", "162 to 165 °C"],
  ["O=C(c1ccccc1)C(c1ccccc1)C(C(=O)c1ccccc1)n1cncn1 (stereo not drawn) [Compound 10f]", "185 to 188 °C"]
]}

Requested read-out: melting point. Entry: O=C(CC(C(=O)c1ccc(Cl)cc1)n1cncn1)c1ccccc1 (stereo not drawn) [Compound 10b]
131 to 133 °C

Given c1ccc(CC(Cc2ccccc2)n2cncn2)cc1 [Compound 8a] , state its recorded melting point.
81 to 83 °C

May I ask what melting point has been recorded for O=C(c1ccc(Cl)cc1)C(C(c1ccccc1)c1ccccc1)n1cncn1 (stereo not drawn) [Compound 7c] ?
140 to 142 °C

Record request: melting point value, item O=C(CC(C(=O)c1ccccc1)n1cncn1)c1ccccc1 (stereo not drawn) [Compound 10a]
115 to 118 °C

// query melting point value for entry O=C(c1ccccc1)C(c1ccccc1)C(C(=O)c1ccc(Cl)cc1Cl)n1cncn1 (stereo not drawn) [10 k]
178 to 181 °C

I have this compound here, O=C(CC(C(=O)c1ccc(Cl)cc1Cl)n1cncn1)c1ccccc1 (stereo not drawn) [Compound 10e] , and I need its recorded melting point.
153 to 156 °C
